Tested on: HEK293
Test: Cellular IC50 HEK293
Assay type: cell-based
Details: Homo sapiens, HEK293, read-out: Cellular IC50 HEK293
ASSAY_METRIC: IC50 (nM)
The figure you give is taken to be in nM; do not add the unit.

Examples with their reported IC50 follow.
> print(dat)
                                   molecule  reported
1  O=C(N[C@H]1C[C@H](c2nnc(-c3ccccn3)n2-c2ccccc2F)C1)c1cc(F)cc2nccnc12 [Example 194]     0.794
2  CCOc1ccc(-c2nnc([C@H]3C[C@H](NC(=O)c4ccnc5cccnc45)C3)n2-c2ccccn2)nc1 [Example 124]        36
3  CCOc1ccc(-c2nnc([C@H]3C[C@H](NC(=O)c4ccccn4)C3)n2-c2ccccc2)nc1 [Example 68]        65

// below: IC50 requested for another molecule
Incoming: Find IC50 (HEK293) for the entry O=C(N[C@H]1C[C@H](c2nnc(-c3ccc(OC(F)F)cn3)n2-c2ccccc2F)C1)c1cccc2nccnc12 [Example 185]
Outgoing: 1.2

Provenance of the data: patent US11926614B2
